Hey, just so you know, these numbers are from the supplement of paper PMC10724198.

# Tested on: Saccharomyces cerevisiae
# experiment.summary: protein stability index of tFT-peptide fusion (C-terminal peptide) (PSI (0-1 scale)); higher = more stable (slower turnover)
# condition.set: genetic background: wild type; temperature: 30 C
Is protein stability index at least 0.4? Then Criterion met. If not, Criterion not met.

Task item: Textbook exercise: given the entry FLVFPLLIQFFL , state whether its protein stability index is greater than or equal to 0.4.
Reply: Criterion not met

Task item: Say whether VCRCFPVCLFSF shows protein stability index of 0.4 or more.
Reply: Criterion not met

Task item: Quick check: does RGGPPPCPLLAA have protein stability index greater than or equal to 0.4?
Reply: Criterion met

Task item: Check this sequence for protein stability index at or above 0.4: PFAGRLWVTSSF
Reply: Criterion met

Task item: Quick check, protein stability index >= 0.4? CGCLPYIGTKLC
Reply: Criterion not met

Task item: Quick check: does AVLSFVLVRSVV have protein stability index greater than or equal to 0.4?
Reply: Criterion met

Task item: Check this sequence for protein stability index at or above 0.4: VCVRLVHCLVLV
Reply: Criterion not met

Task item: Reported protein stability index reaches at least 0.4 for ISATYSYIPVVG ?
Reply: Criterion not met

Task item: Please indicate if the recorded protein stability index for RLVVSRNFYRLC meets or exceeds 0.4.
Reply: Criterion not met

Task item: Reported protein stability index reaches at least 0.4 for RLWLPLSLVLWV ?
Reply: Criterion not met

Task item: Assess whether reported protein stability index for GGRHYGILDLSL sits at 0.4 or higher.
Reply: Criterion met

Task item: Kindly determine if protein stability index recorded for GLVSCWIDPSMA is above or exactly 0.4.
Reply: Criterion met

Task item: Could you verify whether the entry IYITFQIYVSDM shows protein stability index of no less than 0.4?
Reply: Criterion not met

Task item: Has VGASLVVIAIGV a recorded protein stability index greater than or equal to 0.4?
Reply: Criterion not met

Task item: Does the sequence SFLACFVLAFFC have recorded protein stability index that is 0.4 or more?
Reply: Criterion not met

Task item: hey, is protein stability index for this one >= 0.4? CLLLILCFLCVR
Reply: Criterion not met

Task item: Is protein stability index for VVVLLLVVWFCL at or above 0.4?
Reply: Criterion not met

Task item: # check: protein stability index of LRALGPRIYRIS is greater than or equal to 0.4
Reply: Criterion not met

----------
# Test system: Saccharomyces cerevisiae;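 note: PSI is a weighted mean of sequencing reads over stability bins, variants kept only with over 10 reads, mCherry proximal and sfGFP distal, peptide attached via GGGS linker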
# experiment.summary: protein stability index of tFT-peptide fusion (C-terminal peptide) (PSI (0-1 scale)); higher = more stable (slower turnover)
# condition.set: genetic background: wild type; temperature: 30 C
measured.endpoint: protein stability index

Task item: What value of measured protein stability index is listed for DVRLVLCEMIKG ?
Reply: 0.426

Task item: Request the reported protein stability index associated with AGLLVLISWRLF
Reply: 0.141

Task item: I am curious: what protein stability index value has been reported for APRPSYSLLALL ?
Reply: 0.41

Task item: Returns the measured protein stability index for the input sequence. Input: RLPVMFWFVCSF
Reply: 0.466

Task item: Item under review: RSRNSEYILVYN . Reported protein stability index?
Reply: 0.391

Task item: Recorded protein stability index for EFFTLYDLVRFI , please?
Reply: 0.232

Task item: Report protein stability index for LLPSNFLLLVGV please.
Reply: 0.231

Task item: Dear colleague, I am looking for the recorded protein stability index of the following sequence: VARRRQQWMRGS
Reply: 0.516

Task item: Which measured protein stability index value corresponds to RERRISRIPCLS ?
Reply: 0.185

Task item: Record request: protein stability index value, item SFFFLILFLFRD
Reply: 0.299

Task item: Consider the sequence DRLRSGLSLLLA and give its measured protein stability index.
Reply: 0.411

Task item: Give the measured protein stability index of HMVSWTVVRSLM .
Reply: 0.144

Task item: What value of protein stability index has been recorded for this entry: RFIYYCVDVFFS
Reply: 0.1

Task item: Record request: protein stability index value, item CLVISVLFGVVA
Reply: 0.21

Task item: Name the reported protein stability index value associated with the sequence FFSRSLGAGVAA
Reply: 0.604

Task item: For the sequence RLLLLLTCIIYI , what protein stability index is on record?
Reply: 0.16

Task item: I'd like to know its protein stability index. The sequence in question is PGHICVPVLGTA
Reply: 0.357

Task item: Fill in: protein stability index of AFRFHTYFLLLC is ___
Reply: 0.0553

Task item: For the sequence GRFGVGVVFRLA , what protein stability index is on record?
Reply: 0.393
